MEASUREMENT PROTOCOL: Selectivity index, ratio of IC50 for rat L6 cells to IC50 for bloodstream form of Trypanosoma brucei 427
Type: toxicity, cell-based
MEASUREMENT SETUP: read-out: Ratio IC50
Below, each of the compounds is paired with its reported selectivity ratio value.

Worked examples, 5 compounds total:
O=C(CCC12CC3CC(CC(C3)C1)C2)N/N=C/c1ccc([N+](=O)[O-])o1 ... 41
O=C(N/N=C/c1ccc([N+](=O)[O-])o1)C1C2CC3CC(C2)CC1C3 (stereo not given) ... 83
O=C(CCC12CC3CC(C1)CC(C1CCCC1)(C3)C2)N/N=C/c1ccc([N+](=O)[O-])o1 ... 29
O=C(CC1C2CC3CC(C2)CC1C3)N/N=C/c1ccc([N+](=O)[O-])o1 (stereo not given) ... 26
O=C(N/N=C/c1ccc([N+](=O)[O-])o1)C12CC3CC(C1)CC(C1CCCC1)(C3)C2 ... 51

// query Given O=C(CCC1C2CC3CC(C2)CC1C3)N/N=C/c1ccc([N+](=O)[O-])o1 (stereo not given) , state its recorded selectivity ratio.
// result 20

// query And the next one, `O=C(CC12CC3CC(C1)CC(C1CCCC1)(C3)C2)N/N=C/c1ccc([N+](=O)[O-])o1` ?
// result 29

// query And the next one, `O=C(CC12CC3CC(CC(C3)C1)C2)N/N=C/c1ccc([N+](=O)[O-])o1` ?
// result 13

// query And the next one, `O=C(CCC12CC3CC(C1)CC(c1ccccc1)(C3)C2)N/N=C/c1ccc([N+](=O)[O-])o1` ?
// result 51

// query And the next one, `O=C(CC12CC3CC(C1)CC(c1ccccc1)(C3)C2)N/N=C/c1ccc([N+](=O)[O-])o1` ?
// result 23
